Entry source: patent US20240217968A1

# testedSystem: recombinant human Flag-tagged PARP7 (amino acids 456-657) (Homo sapiens, UniProt Q7Z3E1)
# Construct: recombinant human Flag-tagged PARP7 (amino acids 456-657)
# Sequence (Q7Z3E1 456-657): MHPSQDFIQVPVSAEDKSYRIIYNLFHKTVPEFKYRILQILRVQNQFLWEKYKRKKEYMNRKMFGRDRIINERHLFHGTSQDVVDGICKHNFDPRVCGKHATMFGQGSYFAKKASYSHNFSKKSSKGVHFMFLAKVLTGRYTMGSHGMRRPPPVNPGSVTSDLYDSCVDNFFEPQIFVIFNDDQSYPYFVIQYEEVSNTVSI
# assayRemarks: PARP7 biochemical DELFIA assay (auto-MARylation)
# testSettings: DELFIA readout, IC50 class
Reported IC50 values are given for each entry in this list.

### Prompt Quick one: IC50 of CC1CN(C(=O)CCOCCn2ncc3c(=O)[nH]ncc32)CCN1c1ncc(C(F)(F)F)cn1 (stereo not shown) [Compound 137] ?
### Response ≤ 100 nM

### Prompt Quick one: IC50 of CC(COCCC(=O)N1CCN(c2ncc(C(C)(C)C)cn2)CC1)n1nc(C(F)(F)F)c2c(=O)[nH]ncc21 (single isomer, unassigned) [Compound 501] ?
### Response ≤ 100 nM

### Prompt Quick one: IC50 of "O=C(CCOCCc1cccc2c(=O)[nH]ncc12)N1CCC(c2ccc(Cl)cn2)CC1" ?
### Response 100 to 1000 nM

Turning now to a further compound:
### Prompt Quick one: IC50 of Cc1nn(C(C)COCCC(=O)N2CCN(c3ncc(C#N)cn3)CC2)c2cn[nH]c(=O)c12 (single isomer, unassigned) [Compound 262] ?
### Response ≤ 100 nM

---

# testedSystem: recombinant human Flag-tagged PARP7 (amino acids 456-657) (Homo sapiens)
# Construct: recombinant human Flag-tagged PARP7 (amino acids 456-657)
# Sequence (Q7Z3E1 456-657): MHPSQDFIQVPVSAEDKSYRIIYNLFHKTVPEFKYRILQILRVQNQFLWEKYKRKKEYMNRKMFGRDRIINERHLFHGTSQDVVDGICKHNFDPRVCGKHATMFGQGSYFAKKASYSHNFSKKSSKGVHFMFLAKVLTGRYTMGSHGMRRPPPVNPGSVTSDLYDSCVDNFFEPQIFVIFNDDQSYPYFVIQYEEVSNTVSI
# assayRemarks: PARP7 biochemical DELFIA assay (auto-MARylation)
# testSettings: DELFIA readout, IC50 class
pIC50: −log10 of the molar value.
Reported pIC50 values are given for each entry in this list.

Worked examples follow.
### Prompt Quick one: pIC50 of CC(COCCC(=O)N1CCN(c2cc(F)c(F)cn2)CC1)n1nc(C(F)(F)F)c2c(=O)[nH]ncc21 (single isomer, unassigned) [Compound 419] ?
### Response ≥ 7.00

### Prompt Quick one: pIC50 of CC(COCCC(=O)N1CCN(c2ncc(C#N)cn2)CC1)c1ccc(Cl)c2c(=O)[nH]ncc12 (single isomer, unassigned) [Compound 414] ?
### Response 6.00 to 7.00

Continuing:
### Prompt Quick one: pIC50 of CC(COCCC(=O)N1CCN(c2ncc(C(F)(F)F)cn2)CC1)n1nc(C(F)(F)F)c2c(=O)[nH]ccc21 (centres unmarked) [Compound 388] ?
### Response ≥ 7.00

### Prompt Quick one: pIC50 of "[2H]C([2H])(Cn1nc(C(F)(F)F)c2c(=O)[nH]ncc21)OCCC(=O)N1CCN(c2ncc(C#N)cn2)CC1" ?
### Response ≥ 7.00

### Prompt Quick one: pIC50 of "O=C(CCOCCn1ccc2c(=O)[nH]cnc21)N1CCN(c2ncc(C(F)(F)F)cn2)CC1" ?
### Response 6.00 to 7.00

### Prompt Quick one: pIC50 of CC(COCCC(=O)N1CCN(c2ncc(C(F)(F)F)cn2)CC1)n1nc(C(F)F)c2c(=O)[nH]ncc21 (single isomer, unassigned) [Compound 436] ?
### Response ≥ 7.00

### Prompt Quick one: pIC50 of COc1cnc(N2CCN(C(=O)CCOCC(C)n3nc(C(F)(F)F)c4c(=O)[nH]ncc43)CC2)nc1 (single isomer, unassigned) [Compound 332] ?
### Response ≥ 7.00

### Prompt Quick one: pIC50 of "O=C(CCOCCn1nc(C(F)(F)F)c2c(=O)[nH]ncc21)N1CCN(c2ncc(C(F)(F)F)s2)CC1" ?
### Response ≥ 7.00

### Prompt Quick one: pIC50 of "O=C(c1cccc(Cc2cccc3c(=O)[nH]ncc23)c1)N1CCN(C(=O)C2CC2)CC1" ?
### Response 5.00 to 6.00

### Prompt Quick one: pIC50 of "O=C(CCOCCn1ncc2c(=O)[nH]ncc21)N1CCN(c2ccc(C(F)(F)F)cc2)C(=O)C1" ?
### Response 5.00 to 6.00

### Prompt Quick one: pIC50 of O=C(CCOCCc1cccc2c(=O)[nH]ncc12)N1CCN(c2ncc(C(F)(F)F)cn2)C(CO)C1 (single isomer, unassigned) [Compound 149] ?
### Response ≥ 7.00
